- Test system: Surinam grass (Brachiaria decumbens)
- measurement.notes: Test B pre-/postemergence plant response
- Type: in vivo
- recorded.conditions: Postemergence, 250 g ai/ha; scale 0 to 100 (0 no effect, 100 complete control); 13 to 15 days
measure: Plant response rating, Surinam Grass
Lab note: record the figure alone, no unit after it.

Solved cases below.
Cc1cc(-n2c(-c3cccc(F)c3)ncc(C(=O)C3=C(O)CCCC3=O)c2=O)ccc1F [Compound 191] ... 98
Cc1ccc(Cl)cc1-n1c(-c2cccc(F)c2)ncc(C(=O)C2=C(O)CCCC2=O)c1=O [Compound 184] ... 100

Now for the compound whose Plant response rating, Surinam Grass we want.
What value of Plant response rating, Surinam Grass has been reported for the following compound? COCCn1c(-c2cccc(F)c2)ncc(C(=O)C2=C(O)C3CCC(C3)C2=O)c1=O (stereo not drawn) [Compound 235] 100

From: patent US8952024B2
